Molecular target: T1, human MSLN-R1-his protein (human, UniProt Q13421 296-390)
T1 construct: Region 1 of human MSLN, His-tagged; also called human MSLN-R1 protein; hMSLN-R1-his; not shown: His tag
T1 chain: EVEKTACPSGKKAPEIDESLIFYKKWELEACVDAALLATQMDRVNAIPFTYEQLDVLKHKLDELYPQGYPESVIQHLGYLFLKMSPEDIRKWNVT
Test: ELISA, coated MSLN-R1;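 further: serially diluted chimeric antibodies bound to the coated, BSA-blocked plate for 2 h at 37 °C, with TMB colour read after acid stop and a negative control antibody alongside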
readoutLabel: OD450 at 0.0001 nM (OD450)
Write the answer as a number in OD450, unit excluded.

# binder, readoutLabel, experimentalValue
rows = [
    ("S009-F2.47.1 (antibody, human IgG1, kappa, V domains shown, Human-murine chimeric antibody, human IgG1/kappa constant regions) VH: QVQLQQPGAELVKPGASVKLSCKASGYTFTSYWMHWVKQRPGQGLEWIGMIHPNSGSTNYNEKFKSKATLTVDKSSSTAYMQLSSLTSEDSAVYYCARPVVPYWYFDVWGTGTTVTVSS VL: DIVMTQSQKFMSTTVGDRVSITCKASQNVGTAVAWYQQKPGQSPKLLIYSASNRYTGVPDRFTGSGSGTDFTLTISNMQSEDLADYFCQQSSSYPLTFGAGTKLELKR", "OD450 at 0.0001 nM", 0.05),
]

Consider now this further binder.
# query: OD450 at 0.0001 nM of entry S009-F2.16.10 (antibody, human IgG1, kappa, V domains shown, Human-murine chimeric antibody, human IgG1/kappa constant regions) VH: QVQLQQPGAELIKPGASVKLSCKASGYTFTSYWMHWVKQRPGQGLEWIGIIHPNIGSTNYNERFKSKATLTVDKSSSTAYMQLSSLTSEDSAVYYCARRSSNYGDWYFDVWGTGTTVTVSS VL: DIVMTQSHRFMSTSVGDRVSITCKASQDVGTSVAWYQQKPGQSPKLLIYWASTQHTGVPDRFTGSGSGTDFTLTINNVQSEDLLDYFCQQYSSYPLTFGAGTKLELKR 0.05
